Kindly supply the reported IC-50 values for the records listed here.
System: A-549 (carcinoma of the lung)
Procedure Details: Growth inhibition in cell culture, A-549
Type: cell-based, human
Setup Conditions: A-549 (carcinoma of the lung)
The reply should contain only the number, in ng/mL.

For the molecule C/C1=C/C[C@@H](/C(C)=C/c2csc(C)n2)OC(=O)C[C@H](O)C(C)(C)C(=O)[C@H](C)[C@@H](O)[C@@H](C)CCC1 [Epothilone D] , give its reported IC-50.
10

Please supply the value of reported IC-50 for the item C/C(=C\c1csc(C)n1)[C@@H]1C[C@@H]2O[C@]2(C)CCC[C@H](C)[C@H](O)[C@@H](C)C(=O)C(C)(C)[C@@H](O)CC(=O)O1 [Epothilone B, epothilone B, reference compound]
0.1

Given the molecule C/C(=C\c1csc(C)n1)[C@@H]1C[C@@H]2O[C@@H]2CCC[C@H](C)[C@H](O)[C@@H](C)C(=O)C(C)(C)[C@@H](O)CC(=O)O1 [Epothilone A, epothilone A, reference compound] , write its reported IC-50.
0.7

Give the reported IC-50 for this molecule. C/C(=C\c1csc(C)n1)[C@@H]1C/C=C\CCC[C@H](C)[C@H](O)[C@@H](C)C(=O)C(C)(C)[C@@H](O)CC(=O)O1 [Epothilone C]
30
